- EXPERIMENT: Solid state stability (XRPD and HPLC)
- Assay type: physicochemical
- MEASUREMENT_CONTEXT: 40° C./75% RH/uncovered, 1 week
Where a name gives a salt, the structure may show the parent alone.
OBSERVED_PROPERTY: HPLC Purity (area %)
Your answer is read as area %, so omit the unit and give the number.

Prompt: Entry Cc1cnc(-c2cc(O[C@@H](C)[C@@H](C)O)cc(C(=O)N[C@H](C)c3cnc(C(F)(F)F)nc3)c2F)s1 [Crystalline form A of hydrochloride] : reported HPLC Purity (area %) = ?
Completion: 99.58

Prompt: Entry Cc1cnc(-c2cc(O[C@@H](C)[C@@H](C)O)cc(C(=O)N[C@H](C)c3cnc(C(F)(F)F)nc3)c2F)s1 [Crystalline form A of maleate] : reported HPLC Purity (area %) = ?
Completion: 99.65

Prompt: Entry Cc1cnc(-c2cc(O[C@@H](C)[C@@H](C)O)cc(C(=O)N[C@H](C)c3cnc(C(F)(F)F)nc3)c2F)s1 [Crystalline form A of p-toluenesulfonate] : reported HPLC Purity (area %) = ?
Completion: 99.92

Prompt: Entry Cc1cnc(-c2cc(O[C@@H](C)[C@@H](C)O)cc(C(=O)N[C@H](C)c3cnc(C(F)(F)F)nc3)c2F)s1 [Free base crystalline form A] : reported HPLC Purity (area %) = ?
Completion: 99.51
